Target: Bcl-2 WT (Homo sapiens)
Test: Bcl-2 WT inhibition, fluorescence polarization (Flu-BIM tracer) binding assay
Details: FP; 20 nM Bcl2, 5 nM Flu-BIM, 1 h incubation; read-out: Bcl-2 w.t. (FP)
Response field label takes 1 when IC50 is strictly below 20 nM and -1 in all other cases.

STRUCTURE_SMILES: CC1(C)CCC(CN2CCN(c3ccc(C(=O)NS(=O)(=O)c4ccc(NC[C@H]5CC[C@](C)(O)CC5)c([N+](=O)[O-])c4)c(Oc4cnc5[nH]ccc5c4)c3)CC2)=C(c2cc(-c3ccc(F)c(F)c3F)cs2)C1
ASSAYED_TARGET: Bcl-2 WT (Homo sapiens)
LABEL_VALUE: -1

Determine whether this compound shows IC50 lower than 20 nM (ties excluded): CC1(C)CCC(CN2CCN(c3ccc(C(=O)NS(=O)(=O)c4ccc(NCC5CCOCC5)c([N+](=O)[O-])c4)c(Oc4cnc5[nH]ccc5c4)c3)CC2)=C(c2csc(CN3CCOCC3)c2)C1
-1

What do you get for CC1(C)CCC(CN2CCN(c3ccc(C(=O)NS(=O)(=O)c4ccc(NC[C@H]5CC[C@](C)(O)CC5)c([N+](=O)[O-])c4)c(Oc4cnc5[nH]ccc5c4)c3)CC2)=C(c2cc(-c3ccc(C(C)(C)O)cc3F)cs2)C1 ?
1

What do you get for CC1(C)CCC(CN2CCN(c3ccc(C(=O)NS(=O)(=O)c4ccc(NC[C@H]5COCCO5)c([N+](=O)[O-])c4)c(Oc4cnc5[nH]ccc5c4)c3)CC2)=C(c2cc(CN3CCN4CCOC[C@H]4C3)cs2)C1 ?
-1

What do you get for CC1(C)CCC(CN2CCN(c3ccc(C(=O)NS(=O)(=O)c4ccc(NC[C@H]5COCCO5)c([N+](=O)[O-])c4)c(Oc4cnc5[nH]ccc5c4)c3)CC2)=C(c2cc(Nc3ncccn3)cs2)C1 ?
-1

What do you get for CC1(C)CCC(CN2CCN(c3ccc(C(=O)NS(=O)(=O)c4ccc(NCC5CCOCC5)c([N+](=O)[O-])c4)c(Oc4cnc5[nH]ccc5c4)c3)CC2)=C(c2cc(-c3ccccc3)cs2)C1 ?
-1

What do you get for CC1(C)CCC(CN2CCN(c3ccc(C(=O)NS(=O)(=O)c4ccc(NC[C@H]5COCCO5)c([N+](=O)[O-])c4)c(Oc4cnc5[nH]ccc5c4)c3)CC2)=C(c2cc(-c3ccc(Cl)cc3F)cs2)C1 ?
-1

What do you get for CC1(C)CCC(CN2CCN(c3ccc(C(=O)NS(=O)(=O)c4ccc(NC[C@H]5CC[C@](C)(O)CC5)c([N+](=O)[O-])c4)c(Oc4cnc5[nH]ccc5c4)c3)CC2)=C(c2cc(-c3ccc(C(C)(C)C#N)cc3)cs2)C1 ?
1

What do you get for Cc1sc(C2=C(CN3CCN(c4ccc(C(=O)NS(=O)(=O)c5ccc(NC[C@H]6CC[C@](C)(O)CC6)c([N+](=O)[O-])c5)c(Oc5cnc6[nH]ccc6c5)c4)CC3)CCC(C)(C)C2)cc1-c1c(F)cc(C(C)(C)O)cc1F ?
-1

----------
Tested on: RS4; 11Bcl-2-G101V cells
Assay: CellTiter-Glo (CTG) cell viability assay in RS4;11-Bcl-2-G101V cells
Type: cell-based
Details: 72 h, 10% FBS, 3 days
Listed next: entries and their corresponding IC50.
Express the result in µM but write the number alone.

Recorded IC50, per entry:
STRUCTURE_SMILES: CC(C)c1csc(C2=C(CN3CCN(c4ccc(C(=O)NS(=O)(=O)c5ccc(NCC6CCOCC6)c([N+](=O)[O-])c5)c(Oc5cnc6[nH]ccc6c5)c4)CC3)CCC(C)(C)C2)c1
MEASUREMENT_UNIT: µM
IC50: 1.44

STRUCTURE_SMILES: CC1(C)CCC(CN2CCN(c3ccc(C(=O)NS(=O)(=O)c4ccc(NC[C@H]5COCCO5)c([N+](=O)[O-])c4)c(Oc4cnc5[nH]ccc5c4)c3)CC2)=C(c2cc(Nc3ncccn3)cs2)C1
MEASUREMENT_UNIT: µM
IC50: 0.98

Please look at the following molecule next.
State its IC50 on RS4; 11Bcl-2-G101V cells: CC1(C)CCC(CN2CCN(c3ccc(C(=O)NS(=O)(=O)c4ccc(NCC5CCOCC5)c([N+](=O)[O-])c4)c(Oc4cnc5[nH]ccc5c4)c3)CC2)=C(c2cc(-c3ccccc3)cs2)C1
1.46

----------
Biological target: Bcl-2 WT (Homo sapiens, UniProt P10415)
Sequence (P10415 whole entry): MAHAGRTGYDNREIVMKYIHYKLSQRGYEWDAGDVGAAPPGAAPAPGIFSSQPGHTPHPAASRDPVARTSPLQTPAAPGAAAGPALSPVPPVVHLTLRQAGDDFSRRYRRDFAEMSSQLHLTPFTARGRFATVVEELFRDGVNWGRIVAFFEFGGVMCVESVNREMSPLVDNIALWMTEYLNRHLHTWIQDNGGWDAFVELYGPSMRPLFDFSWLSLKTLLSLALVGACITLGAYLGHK
Assay: Bcl-2 WT inhibition, fluorescence polarization (Flu-BIM tracer) binding assay
Settings: FP; 20 nM Bcl2, 5 nM Flu-BIM, 1 h incubation; read-out: Bcl-2 w.t. (FP)
RECORDED_ENDPOINT: IC50 (nM)
Express the result in nM but write the number alone.

Recorded IC50, per entry:
COMPOUND: CC1(C)CCC(CN2CCN(c3ccc(C(=O)NS(=O)(=O)c4ccc(NC[C@H]5CC[C@](C)(O)CC5)c([N+](=O)[O-])c4)c(Oc4cnc5[nH]ccc5c4)c3)CC2)=C(c2cc(-c3c(F)cc(C(C)(O)C4CC4)cc3F)cs2)C1 (stereo partly drawn)
RECORDED_ENDPOINT: IC50
OBSERVED_VALUE: 24.8
//
COMPOUND: CC1(C)CCC(CN2CCN(c3ccc(C(=O)NS(=O)(=O)c4ccc(NC[C@H]5CC[C@](C)(O)CC5)c([N+](=O)[O-])c4)c(Oc4cnc5[nH]ccc5c4)c3)CC2)=C(c2cc(-c3ccc(C(C)(C)O)c(F)c3)cs2)C1
RECORDED_ENDPOINT: IC50
OBSERVED_VALUE: 15.4

Please look at the following compound next.
Consider the compound shown here: CC1(C)CCC(CN2CCN(c3ccc(C(=O)NS(=O)(=O)c4ccc(NC[C@H]5COCCO5)c([N+](=O)[O-])c4)c(Oc4cnc5[nH]ccc5c4)c3)CC2)=C(c2cc(NC(=O)c3ccccc3)cs2)C1 What is its recorded IC50?
37.5
